Values compiled from paper PMC12693416.

Test system: hyperlipidaemic mice
Assay: Tyloxapol (Triton WR 1339)-induced hyperlipidemia, plasma lipid parameters
Format: in vivo
Conditions: Mus musculus, ip, 24 h; i.p. 84 μmol/kg; LDL calculated as 3/4*(TC-HDL); read-out: % LDL Decrease
measurement name: inhibition in vivo at 84 µmol/kg
State the result as a value with its unit after it.

{"molecule": "COc1ccc(/C=C/C(=O)N2CCSC(c3ccc(-c4ccccc4)cc3)C2)cc1OC (stereo not shown)", "measurement name": "inhibition in vivo at 84 µmol/kg", "reported result": "53%"}
{"molecule": "O=C(c1cccnc1)N1CCSC(c2ccc(-c3ccccc3)cc2)C1 (stereo not shown)", "measurement name": "inhibition in vivo at 84 µmol/kg", "reported result": "44%"}
{"molecule": "CC(C)(C)c1cc(C(=O)N2CC(c3ccc(-c4ccccc4)cc3)Sc3ccccc32)cc(C(C)(C)C)c1O (stereo not shown)", "measurement name": "inhibition in vivo at 84 µmol/kg", "reported result": "74%"}
{"molecule": "O=C(c1cc(O)c(O)c(O)c1)N1CC(c2ccc(-c3ccccc3)cc2)Sc2ccccc21 (stereo not shown)", "measurement name": "inhibition in vivo at 84 µmol/kg", "reported result": "62%"}
{"molecule": "O=C(c1cc(O)c(O)c(O)c1)N1CCSC(c2ccc(-c3ccccc3)cc2)C1 (stereo not shown)", "measurement name": "inhibition in vivo at 84 µmol/kg", "reported result": "79%"}

Exam item: Quote inhibition in vivo at 84 µmol/kg reported for COc1cc(C(=O)N2CCSC(c3ccc(-c4ccccc4)cc3)C2)cc(OC)c1OC (stereo not shown) please.
Marked response: 5%

Exam item: Quote inhibition in vivo at 84 µmol/kg reported for CC(C)(C)c1cc(/C=C/C(=O)N2CC(c3ccc(-c4ccccc4)cc3)Sc3ccccc32)cc(C(C)(C)C)c1O (stereo not shown) please.
Marked response: 66%

###

Molecular target: acetylcholinesterase from eel (Electrophorus electricus)
Construct: purchased Sigma
Sequence (O42275 24-633): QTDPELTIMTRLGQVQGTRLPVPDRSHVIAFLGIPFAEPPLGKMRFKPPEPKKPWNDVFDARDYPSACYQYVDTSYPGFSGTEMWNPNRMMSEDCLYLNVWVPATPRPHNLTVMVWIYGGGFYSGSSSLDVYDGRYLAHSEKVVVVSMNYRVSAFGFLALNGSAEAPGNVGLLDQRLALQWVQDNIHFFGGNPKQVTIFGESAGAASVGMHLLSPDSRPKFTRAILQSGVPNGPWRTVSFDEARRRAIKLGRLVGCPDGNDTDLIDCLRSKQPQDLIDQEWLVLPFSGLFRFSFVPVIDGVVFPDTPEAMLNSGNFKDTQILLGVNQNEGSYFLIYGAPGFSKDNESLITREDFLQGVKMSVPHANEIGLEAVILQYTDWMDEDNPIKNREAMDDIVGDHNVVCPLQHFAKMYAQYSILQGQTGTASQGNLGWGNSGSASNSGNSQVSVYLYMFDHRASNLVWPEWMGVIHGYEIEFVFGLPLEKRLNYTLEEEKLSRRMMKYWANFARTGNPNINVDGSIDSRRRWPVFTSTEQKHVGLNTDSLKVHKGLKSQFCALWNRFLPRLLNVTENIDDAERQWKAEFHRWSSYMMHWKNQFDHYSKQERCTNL
Test: Acetylcholinesterase (AChE) inhibition (Ellman)
Type: biochemical
Settings: read-out: AChE Inhibition (%), 300 μM compound
measurement name: inhibition at 300 µM

Exam item: Quote inhibition at 300 µM reported for Cc1c(C)c2c(c(C)c1O)CCC(C)(C(=O)N1CCSC(c3ccc(-c4ccccc4)cc3)C1)O2 (stereo not shown) please.
Marked response: ~45%

Exam item: Quote inhibition at 300 µM reported for O=C(c1cc(O)c(O)c(O)c1)N1CC(c2ccc(-c3ccccc3)cc2)Sc2ccccc21 (stereo not shown) please.
Marked response: ~45%

Exam item: Quote inhibition at 300 µM reported for CC(C)(C)c1cc(/C=C/C(=O)N2CCSC(c3ccc(-c4ccccc4)cc3)C2)cc(C(C)(C)C)c1O (stereo not shown) please.
Marked response: ~45%

Exam item: Quote inhibition at 300 µM reported for COc1cc(C(=O)N2CC(c3ccc(-c4ccccc4)cc3)Sc3ccccc32)cc(OC)c1OC (stereo not shown) please.
Marked response: ~45%
